src = patent US4258199A

- Assay overview: half-life in saline / stability in solution (Table 1)
- Assay type: physicochemical
- Experimental parameters: 250° C. (so in the source), read-out: t 1/2 saline
- Text: The removal of the protecting groups R^1, R^2 and R^3 from the resulting products of the oxidation, i.e, the allylic oxygen cyclic ethers or sulfones or the vinylic sulfoxides, or sulfones, can be carried out with acid or base or sequentially with both, if necessary, and yields prostacyclin isomers and analogs. […]
Measured half-life by item

IN: Given the compound CCCCC[C@H](O)/C=C/[C@@H]1[C@H]2C/C(=C/CCCC(=O)O)[S+]([O-])[C@H]2C[C@H]1O (stereo partly shown) [6,9-sulfoxa-5(Z)prostacyclin] , what is its reported half-life?
OUT: > 1440 min

IN: Another: CCCCC[C@H](O)/C=C/[C@@H]1[C@H]2C/C(=C/CCCC(=O)O)S(=O)(=O)[C@H]2C[C@H]1O [6,9-sulfo-5(Z)prostacyclin]
OUT: > 1440 min

IN: Another: CCCCC[C@H](O)/C=C/[C@@H]1[C@H]2C/C(=C/CCCC(=O)O)S[C@H]2C[C@H]1O [6,9α-Thia-5(Z)prostacyclin]
OUT: > 180 min

IN: Another: CCCCC[C@H](O)/C=C/[C@@H]1[C@H]2C/C(=C\CCCC(=O)O)[S+]([O-])[C@H]2C[C@H]1O (stereo partly shown) [6,9-sulfoxa-5(E)prostacyclin]
OUT: > 1440 min
